Measured Number of cell aggregates by size accompanies every entry in the list below.
# System: human iPS cells (TkDN4-M)
# TEST DETAILS: Cell aggregate size distribution (widest portion) from micrographs during suspension culture
# Type: cell-based
# CONDITION NOTES: Day 1; size range 300− μm; cytochalasin D 20 nM, jasplakinolide 20 nM, demecolcine 10 ng/mL, DMSO 1%
# Experimental: Cell suspensions were prepared in the same manner as in Example 2, and separately, the concentrations of the suppressors of cell aggregation were adjusted so that the final concentration of demecolcine (same as above) was 10 mg/mL (26.9 mM), the final concentration of cytochalasin D (same as above) was 0.51 mg/mL (1 mM), the concentration of DMSO (the same as above) was the stock concentration, or the final concentration of jasplakinolide (Cayman, 11705) was 0.14 mg/mL (0.2 mM). […]
Number, no unit, nothing else.

Some entries whose results are on file:
COMPOUND	Number of cell aggregates by size
C/C1=C\[C@H](C)C[C@H](C)OC(=O)C[C@H](c2ccc(O)cc2)NC(=O)[C@@H](Cc2c(Br)[nH]c3ccccc23)N(C)C(=O)[C@H](C)NC(=O)[C@@H](C)C1 [jasplakinolide]	1
CN[C@H]1CCc2cc(OC)c(OC)c(OC)c2-c2ccc(OC)c(=O)cc21	1
C=C1[C@@H](C)[C@H]2[C@H](Cc3ccccc3)NC(=O)[C@]23[C@H](OC(C)=O)/C=C/[C@@](C)(O)C(=O)[C@@H](C)C/C=C/[C@H]3[C@@H]1O	0

Let us move to another entry and its Number of cell aggregates by size.
The compound listed as C[S+](C)[O-] [DMSO, dimethylsulfoxide] has a reported Number of cell aggregates by size of 0

====

Measured Number of cell aggregates by size accompanies every entry in the list below.
# Test system: human iPS cells (TkDN4-M)
# TEST DETAILS: Cell aggregate size distribution (widest portion) from micrographs during suspension culture
# Type: cell-based
# CONDITION NOTES: Day 1; size range 140− μm; cytochalasin D 20 nM, jasplakinolide 20 nM, demecolcine 10 ng/mL, DMSO 1%
Number, no unit, nothing else.

Some entries whose results are on file:
COMPOUND	TARGET OF ASSAY	Number of cell aggregates by size
C=C1[C@@H](C)[C@H]2[C@H](Cc3ccccc3)NC(=O)[C@]23[C@H](OC(C)=O)/C=C/[C@@](C)(O)C(=O)[C@@H](C)C/C=C/[C@H]3[C@@H]1O [cytochalasin D]	human iPS cells (TkDN4-M)	66
CN[C@H]1CCc2cc(OC)c(OC)c(OC)c2-c2ccc(OC)c(=O)cc21 [demecolcine]	human iPS cells (TkDN4-M)	16
C[S+](C)[O-] [DMSO, dimethylsulfoxide]	human iPS cells (TkDN4-M)	56

Let us move to another entry and its Number of cell aggregates by size.
human iPS cells (TkDN4-M) Number of cell aggregates by size of C/C1=C\[C@H](C)C[C@H](C)OC(=O)C[C@H](c2ccc(O)cc2)NC(=O)[C@@H](Cc2c(Br)[nH]c3ccccc23)N(C)C(=O)[C@H](C)NC(=O)[C@@H](C)C1 [jasplakinolide] is 52

====

# Tested on: human iPS cells (TkDN4-M)
# TEST DETAILS: Cell aggregate size distribution (widest portion) from micrographs during suspension culture
# Assay type: cell-based
# CONDITION NOTES: Day 1; size range 180− μm; cytochalasin D 20 nM, jasplakinolide 20 nM, demecolcine 10 ng/mL, DMSO 1%
VALUE TYPE: Number of cell aggregates by size

Some entries whose results are on file:
COMPOUND	EXPERIMENTAL RESULT
CN[C@H]1CCc2cc(OC)c(OC)c(OC)c2-c2ccc(OC)c(=O)cc21	45
C/C1=C\[C@H](C)C[C@H](C)OC(=O)C[C@H](c2ccc(O)cc2)NC(=O)[C@@H](Cc2c(Br)[nH]c3ccccc23)N(C)C(=O)[C@H](C)NC(=O)[C@@H](C)C1 [jasplakinolide]	30
C[S+](C)[O-] [DMSO, dimethylsulfoxide]	33

Let us move to another entry and its Number of cell aggregates by size.
The compound listed as C=C1[C@@H](C)[C@H]2[C@H](Cc3ccccc3)NC(=O)[C@]23[C@H](OC(C)=O)/C=C/[C@@](C)(O)C(=O)[C@@H](C)C/C=C/[C@H]3[C@@H]1O has a reported Number of cell aggregates by size of 10
